pKi: −log10 of the molar value.
pKi values for Urokinase-type plasminogen activator (Homo sapiens, UniProt P00749), compiled from several publications.

# count of solved cases: 3
Molecule smiles | pKi
O=C(CNC(=O)[C@@H](CCc1cccc[n+]1[O-])NS(=O)(=O)Cc1ccccc1)NCCc1ccncc1 | < 5.30
Cc1cc(OCCCCCN=C(N)N)cc(OS(=O)(=O)c2ccccc2Cl)c1 | < 3.70
CS(=O)(=O)c1ccccc1-c1ccc(NC(=O)c2cc(C(F)(F)F)nn2-c2cccc(CN)c2)c(F)c1.Cl | < 4.72

Q: Need pKi, item `NCc1ccccc1-n1nc(C(F)(F)F)cc1C(=O)Nc1ccc(-c2ccccc2S(N)(=O)=O)cc1F`
Ans: < 4.89
